test system: HIV-integrase (Human immunodeficiency virus type 1 group M subtype B)
Construct: Recombinant integrase (0.26 ng) was incubated with the beads
test protocol: in-vitro activity against HIV-integrase (HIV Integrase Inhibition, SPA bead assay)
Type: biochemical
stated conditions: Table 1a; recombinant integrase, activity class
Reported IC50 values for a set of molecules

// query Recorded IC50 for `Cc1ncnn1-c1cc(F)ccc1CNC(=O)c1nc2n(c(=O)c1O)CCN(C)C21CCC1` , please?
// result 10 to 100 nM

// query Entry `Cc1ncn(-c2cc(F)ccc2CNC(=O)c2nc3n(c(=O)c2O)CCCOC32CCOCC2)n1` : reported IC50 = ?
// result 1 to 10 nM

// query Given the molecule `CS(=O)(=O)c1cc(F)ccc1CNC(=O)c1nc2n(c(=O)c1O)CCCOC21CCOCC1` , what is its reported IC50?
// result 10 to 100 nM

// query Can you share its IC50? I mean this molecule: `CS(=O)(=O)c1cc(F)ccc1CNC(=O)c1nc2n(c(=O)c1O)CCOC21COC1`
// result 10 to 100 nM

// query IC50 for `Cc1ncn(-c2ccccc2CNC(=O)c2nc3n(c(=O)c2O)CCCOC32CCOCC2)n1` ?
// result 10 to 100 nM

// query Could you share which IC50 value was measured for `O=C(NCc1ccccc1N1CCOC1=O)c1nc2n(c(=O)c1O)CCOC21CCC1` ?
// result 1 to 10 nM

// query Consider the molecule `CN1CCn2c(nc(C(=O)NCc3ccc(F)cc3)c(O)c2=O)C12CCC2` and give its measured IC50.
// result 1 to 10 nM

// query Look at this molecule and give its reported IC50. `Cc1ncn(-c2cc(F)ccc2CNC(=O)c2nc3n(c(=O)c2O)CCOC32CCCC2)n1`
// result 1 to 10 nM
